Cited source for all entries: paper PMC8185074

# assay system: HDAC2 (Homo sapiens)
# Construct: purchased Reaction Biology Corporation (assay run by the CRO)
# Sequence (Q92769 whole entry): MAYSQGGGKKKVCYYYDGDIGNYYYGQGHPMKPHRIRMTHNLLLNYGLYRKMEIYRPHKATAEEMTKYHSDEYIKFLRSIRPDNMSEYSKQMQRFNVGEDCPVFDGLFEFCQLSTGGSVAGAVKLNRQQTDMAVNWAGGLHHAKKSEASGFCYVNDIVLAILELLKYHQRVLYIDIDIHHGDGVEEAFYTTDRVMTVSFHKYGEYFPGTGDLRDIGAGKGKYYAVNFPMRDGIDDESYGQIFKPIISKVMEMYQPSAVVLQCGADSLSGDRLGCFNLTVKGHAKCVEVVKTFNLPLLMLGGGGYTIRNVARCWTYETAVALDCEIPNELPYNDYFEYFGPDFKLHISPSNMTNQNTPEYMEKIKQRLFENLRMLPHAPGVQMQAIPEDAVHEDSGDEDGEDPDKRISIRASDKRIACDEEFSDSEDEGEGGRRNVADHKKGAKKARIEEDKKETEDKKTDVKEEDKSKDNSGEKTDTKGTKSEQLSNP
# procedure details: HDAC2 inhibition, full IC50 measurement (Reaction Biology; fluorogenic p53 peptide RHKK(Ac)AMC)
# Assay type: biochemical
# conditions: Conc. 4.57E-09 M, t1
# Description: The assay was performed using 50 μM fluorogenic peptide from p53 residues 379-382 [RHKK(Ac)AMC] in a base reaction buffer of 50 mM Tris-HCl at pH 8.0, 137 mM NaCl, 2.7 mM KCl, 1 mM MgCl2, and freshly added 1 mg/ml BSA and 1% DMSO. […] Peptide concentrations were calculated based on mass of lyophilized peptide and its molecular weight. […]
Peptide text beside a SMILES is read from it.
For each record, write down the corresponding HDAC2 activity raw data (signal).
Give bare numbers.

# batch: return HDAC2 activity raw data (signal) for each of the 3 compounds below
1. N=C(N)NCCC[C@@H]1NC(=O)[C@H](Cc2c[nH]c3ccccc23)NC(=O)[C@H](CC(=O)O)NC(=O)[C@@H](CO)NC(=O)[C@H](Cc2c[nH]c3ccccc23)NC(=O)[C@H](CCCCCS)NC(=O)[C@H](CCC(N)=O)NC1=O [des4.1.0, SHA-Trp-dSer-Asp-Trp-Arg-Gln] (HELM PEPTIDE1{D.W.R.Q.[O=C([C@H](CCCCCS)N[*:1])[*:2]].W.[dS]}$PEPTIDE1,PEPTIDE1,1:R1-7:R2$$$V2.0)
2. CC(C)C[C@H]1NC(=O)[C@H](Cc2c[nH]c3ccccc23)NC(=O)[C@H](CCCCCS)NC(=O)[C@@H](Cc2ccc(O)cc2)NC(=O)[C@@H](C(C)C)NC(=O)[C@H](Cc2c[nH]cn2)NC(=O)CNC(=O)CNC(=O)[C@@H](CO)NC1=O [des2.2.0, SHA-Trp-dLeu-dSer-Gly-Gly-His-dVal-dTyr] (HELM PEPTIDE1{G.G.H.[dV].[dY].[O=C([C@H](CCCCCS)N[*:1])[*:2]].W.[dL].[dS]}$PEPTIDE1,PEPTIDE1,1:R1-9:R2$$$V2.0)
3. CC(C)[C@@H]1NC(=O)[C@H](CCCNC(=N)N)NC(=O)[C@@H](CC(=O)O)NC(=O)[C@H](CO)NC(=O)[C@@H](CO)NC(=O)[C@@H](CCC(=O)O)NC(=O)[C@H](Cc2ccc(O)cc2)NC(=O)[C@H](CCCCCS)NC1=O [des4.2.0, SHA-Tyr-dGlu-dSer-Ser-dAsp-Arg-Val] (HELM PEPTIDE1{R.V.[O=C([C@H](CCCCCS)N[*:1])[*:2]].Y.[dE].[dS].S.[dD]}$PEPTIDE1,PEPTIDE1,1:R1-8:R2$$$V2.0)

Result:
1: 1969255; 2: 679123; 3: 1679024

###

For each record, write down the corresponding HDAC3 activity raw data (signal).
# assay system: HDAC3 (Homo sapiens, UniProt O15379)
# Construct: purchased Reaction Biology Corporation (assay run by the CRO)
# Sequence (O15379 whole entry): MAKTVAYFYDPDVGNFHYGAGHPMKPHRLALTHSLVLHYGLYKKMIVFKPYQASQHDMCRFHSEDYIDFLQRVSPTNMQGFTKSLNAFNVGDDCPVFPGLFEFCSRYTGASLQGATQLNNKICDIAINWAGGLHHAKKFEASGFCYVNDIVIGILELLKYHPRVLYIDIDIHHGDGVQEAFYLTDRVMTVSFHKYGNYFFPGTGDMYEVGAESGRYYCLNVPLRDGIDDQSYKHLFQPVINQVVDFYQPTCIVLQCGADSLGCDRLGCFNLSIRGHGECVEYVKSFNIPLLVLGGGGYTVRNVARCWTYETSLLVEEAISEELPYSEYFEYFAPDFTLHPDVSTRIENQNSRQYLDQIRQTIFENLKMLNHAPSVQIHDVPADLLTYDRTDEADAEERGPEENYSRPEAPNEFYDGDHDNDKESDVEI
# Sequence (Q9Y618 395-489 partner limits assumed): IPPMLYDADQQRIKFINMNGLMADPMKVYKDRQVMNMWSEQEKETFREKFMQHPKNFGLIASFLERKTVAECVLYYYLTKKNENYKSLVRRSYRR
# procedure details: HDAC3 inhibition, full IC50 measurement (Reaction Biology; fluorogenic p53 peptide RHKK(Ac)AMC)
# Assay type: biochemical
# conditions: Conc. 4.57E-09 M, t2
# Description: The assay was performed using 50 μM fluorogenic peptide from p53 residues 379-382 [RHKK(Ac)AMC] in a base reaction buffer of 50 mM Tris-HCl at pH 8.0, 137 mM NaCl, 2.7 mM KCl, 1 mM MgCl2, and freshly added 1 mg/ml BSA and 1% DMSO. […] Peptide concentrations were calculated based on mass of lyophilized peptide and its molecular weight. […]
Peptide text beside a SMILES is read from it.
Give bare numbers.

molecule	endpoint	data value
C[C@H](O)[C@H]1NC(=O)[C@H](Cc2c[nH]c3ccccc23)NC(=O)[C@H](CCCCCS)NC(=O)[C@H](CCCCN)NC(=O)[C@@H](CC(=O)O)NC(=O)[C@@H](CCCCN)NC(=O)[C@@H](CO)NC(=O)[C@H](CC(N)=O)NC(=O)[C@H](CC(=O)O)NC1=O [des2.1.0, SHA-Trp-dThr-Asp-Asn-dSer-dLys-dAsp-Lys] (HELM PEPTIDE1{D.N.[dS].[dK].[dD].K.[O=C([C@H](CCCCCS)N[*:1])[*:2]].W.[dT]}$PEPTIDE1,PEPTIDE1,1:R1-9:R2$$$V2.0)	HDAC3 activity raw data (signal)	1319114
NCCCC[C@@H]1NC(=O)[C@@H]2CCCN2C(=O)[C@H](CC(N)=O)NC(=O)[C@H](CCCCCS)NC(=O)CNC(=O)[C@H](Cc2c[nH]c3ccccc23)NC(=O)[C@@H](CCCCN)NC(=O)[C@H](CCC(N)=O)NC1=O [des1.1.0, SHA-Asn-Pro-Lys-Gln-dLys-Trp-Gly] (HELM PEPTIDE1{G.[O=C([C@H](CCCCCS)N[*:1])[*:2]].N.P.K.Q.[dK].W}$PEPTIDE1,PEPTIDE1,1:R1-8:R2$$$V2.0)	HDAC3 activity raw data (signal)	1277477
CCCC[C@H]1NC(=O)[C@H](Cc2ccccc2)NC(=O)[C@H](CCCCCS)NC(=O)[C@@H](CCCNC(=N)N)NC(=O)[C@H](CC(=O)O)NC(=O)[C@@H](CO)NC(=O)[C@@H](C)NC(=O)[C@H](CCCCN)NC1=O [des4.3.1, SHA-Phe-dNle-Lys-dAla-dSer-Asp-dArg] (HELM PEPTIDE1{D.[dR].[O=C([C@H](CCCCCS)N[*:1])[*:2]].F.[CCCC[C@@H](N[*:1])C(=O)[*:2]].K.[dA].[dS]}$PEPTIDE1,PEPTIDE1,1:R1-8:R2$$$V2.0)	HDAC3 activity raw data (signal)	1136444
CC(C)[C@@H]1NC(=O)[C@H](CCCNC(=N)N)NC(=O)[C@@H](CC(=O)O)NC(=O)[C@H](CO)NC(=O)[C@@H](CO)NC(=O)[C@@H](CCC(=O)O)NC(=O)[C@H](Cc2ccc(O)cc2)NC(=O)[C@H](CCCCCS)NC1=O [des4.2.0, SHA-Tyr-dGlu-dSer-Ser-dAsp-Arg-Val] (HELM PEPTIDE1{R.V.[O=C([C@H](CCCCCS)N[*:1])[*:2]].Y.[dE].[dS].S.[dD]}$PEPTIDE1,PEPTIDE1,1:R1-8:R2$$$V2.0)	HDAC3 activity raw data (signal)	1313514

// moving on: another record for HDAC3 activity raw data (signal)
Request: Looking for the measured HDAC3 activity raw data (signal) of N=C(N)NCCC[C@H]1NC(=O)[C@@H]2CCCN2C(=O)[C@H](CO)NC(=O)[C@@H](Cc2c[nH]cn2)NC(=O)[C@H](CCCCCS)NC(=O)[C@H](CCCCN)NC(=O)[C@H](Cc2ccc(O)cc2)NC(=O)[C@H]2CCCN2C(=O)[C@@H](CCC(N)=O)NC1=O [des3.1.0, SHA-dHis-Ser-Pro-dArg-dGln-dPro-Tyr-Lys] (HELM PEPTIDE1{K.[O=C([C@H](CCCCCS)N[*:1])[*:2]].[dH].S.P.[dR].[dQ].[dP].Y}$PEPTIDE1,PEPTIDE1,1:R1-9:R2$$$V2.0) , can you help?
Result: 1037845

###

For each record, write down the corresponding HDAC3 activity raw data (signal).
# assay system: HDAC3 (Homo sapiens)
# Construct: purchased Reaction Biology Corporation (assay run by the CRO)
# procedure details: HDAC3 inhibition, full IC50 measurement (Reaction Biology; fluorogenic p53 peptide RHKK(Ac)AMC)
# Assay type: biochemical
# conditions: Conc. 5.08E-10 M, t1
Peptide text beside a SMILES is read from it.
Answers are plain numbers.

# batch: return HDAC3 activity raw data (signal) for each of the 5 compounds below
1. CCCC[C@H]1NC(=O)[C@H](Cc2ccccc2)NC(=O)[C@H](CCCCCS)NC(=O)[C@@H](CCCNC(=N)N)NC(=O)[C@H](CC(=O)O)NC(=O)[C@@H](CO)NC(=O)[C@@H](C)NC(=O)[C@H](CCCCN)NC1=O [des4.3.1, SHA-Phe-dNle-Lys-dAla-dSer-Asp-dArg] (HELM PEPTIDE1{D.[dR].[O=C([C@H](CCCCCS)N[*:1])[*:2]].F.[CCCC[C@@H](N[*:1])C(=O)[*:2]].K.[dA].[dS]}$PEPTIDE1,PEPTIDE1,1:R1-8:R2$$$V2.0)
2. C[C@H](O)[C@H]1NC(=O)[C@H](Cc2c[nH]c3ccccc23)NC(=O)[C@H](CCCCCS)NC(=O)[C@H](CCCCN)NC(=O)[C@@H](CC(=O)O)NC(=O)[C@@H](CCCCN)NC(=O)[C@@H](CO)NC(=O)[C@H](CC(N)=O)NC(=O)[C@H](CC(=O)O)NC1=O [des2.1.0, SHA-Trp-dThr-Asp-Asn-dSer-dLys-dAsp-Lys] (HELM PEPTIDE1{D.N.[dS].[dK].[dD].K.[O=C([C@H](CCCCCS)N[*:1])[*:2]].W.[dT]}$PEPTIDE1,PEPTIDE1,1:R1-9:R2$$$V2.0)
3. NCCCC[C@@H]1NC(=O)[C@@H]2CCCN2C(=O)[C@H](CC(N)=O)NC(=O)[C@H](CCCCCS)NC(=O)CNC(=O)[C@H](Cc2c[nH]c3ccccc23)NC(=O)[C@@H](CCCCN)NC(=O)[C@H](CCC(N)=O)NC1=O [des1.1.0, SHA-Asn-Pro-Lys-Gln-dLys-Trp-Gly] (HELM PEPTIDE1{G.[O=C([C@H](CCCCCS)N[*:1])[*:2]].N.P.K.Q.[dK].W}$PEPTIDE1,PEPTIDE1,1:R1-8:R2$$$V2.0)
4. CC(C)[C@@H]1NC(=O)[C@H](CCCNC(=N)N)NC(=O)[C@@H](CC(=O)O)NC(=O)[C@H](CO)NC(=O)[C@@H](CO)NC(=O)[C@@H](CCC(=O)O)NC(=O)[C@H](Cc2ccc(O)cc2)NC(=O)[C@H](CCCCCS)NC1=O [des4.2.0, SHA-Tyr-dGlu-dSer-Ser-dAsp-Arg-Val] (HELM PEPTIDE1{R.V.[O=C([C@H](CCCCCS)N[*:1])[*:2]].Y.[dE].[dS].S.[dD]}$PEPTIDE1,PEPTIDE1,1:R1-8:R2$$$V2.0)
5. N=C(N)NCCC[C@@H]1NC(=O)[C@H](Cc2c[nH]c3ccccc23)NC(=O)[C@H](CC(=O)O)NC(=O)[C@@H](CO)NC(=O)[C@H](Cc2c[nH]c3ccccc23)NC(=O)[C@H](CCCCCS)NC(=O)[C@H](CCC(N)=O)NC1=O [des4.1.0, SHA-Trp-dSer-Asp-Trp-Arg-Gln] (HELM PEPTIDE1{D.W.R.Q.[O=C([C@H](CCCCCS)N[*:1])[*:2]].W.[dS]}$PEPTIDE1,PEPTIDE1,1:R1-7:R2$$$V2.0)

Result:
1099296
1390666
1537856
1345816
1094681
